Where do the numbers come from? From patent US11084781B2.

# MEASURED ON: human CB1 receptor (Homo sapiens, UniProt P21554)
# Construct: host or cells: CHO-RD-HGA16 cells (CHO cells overexpressing promiscuous Galpha16)
# Sequence (P21554 whole entry): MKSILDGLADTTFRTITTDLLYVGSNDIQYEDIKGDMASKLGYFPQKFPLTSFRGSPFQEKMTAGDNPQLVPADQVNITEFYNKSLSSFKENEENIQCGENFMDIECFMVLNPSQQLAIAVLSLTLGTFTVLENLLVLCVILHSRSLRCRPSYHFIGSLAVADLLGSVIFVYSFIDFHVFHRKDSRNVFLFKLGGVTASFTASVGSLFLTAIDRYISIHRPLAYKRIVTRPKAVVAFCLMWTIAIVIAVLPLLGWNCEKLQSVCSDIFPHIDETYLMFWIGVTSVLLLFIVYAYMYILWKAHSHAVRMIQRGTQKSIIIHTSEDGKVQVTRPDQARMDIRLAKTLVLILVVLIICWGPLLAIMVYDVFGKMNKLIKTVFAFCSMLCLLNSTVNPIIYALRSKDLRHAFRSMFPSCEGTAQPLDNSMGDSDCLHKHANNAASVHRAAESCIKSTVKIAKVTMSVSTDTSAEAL
# PROCEDURE SUMMARY: CB1 calcium mobilization assay (antagonist mode, against EC80 of CP55,940)
# Format: cell-based
# MEASUREMENT SETUP: Table 2; against EC80 (100 nM) of CP55,940; mean ± S.E.M.; read-out: CB1 calcium assay IC50
pIC50: −log10 of the molar value.
MEASURE: pIC50

molecule="O=C(Nc1ccc(Cl)cc1)Nc1ccc(-c2ccccc2)cc1 [Compound 59]" measured_on="human CB1 receptor (Homo sapiens, UniProt P21554)" readout_value=7.18
